applied.conditions: buffer; pH 7.4; 200.0 µM
Exercise: for every item that follows, state its recorded log10 solubility kinetic.
Please keep in mind that the values are log10 of solubility kinetic expressed in µg/mL.

Some solved cases for reference:
COc1ccccc1NC(=S)NCc1ccccc1    1.17
CCCCc1ccc(NC(=S)N2CCCC2)cc1    0.96
CCC(=O)OC1(Cc2ccc(CC)cc2)CC(C)N(C)CC1C.Cl (centres undefined)    1.67
Cc1ccc(CNC(=O)COC(=O)c2cc(=O)[nH]c3ccccc23)cc1    0.74
COc1cccc(/C=C/c2ccccn2)c1O    1.53
CCC(C)NC(=O)c1ccc(-n2c(=S)[nH]c3ccccc3c2=O)cc1 (centres undefined)    0.57
O=C1/C(=C/c2cccnc2)SC(=S)N1c1ccc(O)cc1    -0.05
CC(=O)N/C(=C\c1ccccc1)C(=O)OC/C=C/c1ccccc1    1.67

Respectfully, I request log10 solubility kinetic for each entry included below.
1. CC(=O)c1ccc(OCCCOc2cccc3cccnc23)cc1
2. CSC1=C(C#N)C(c2ccncc2)C(C(=O)Nc2ccccc2)=C(C)N1 (centres undefined)
3. O=C(CSc1ccccc1C(=O)O)NCC1CCCCC1
4. O=C(NC1CCCc2ccccc21)c1ccc([N+](=O)[O-])cc1 (centres undefined)
5. CN(C)c1cc(-c2cccc([N+](=O)[O-])c2)oc(=O)c1Cl
6. O=C(Nc1nc2cc3c(cc2s1)OCO3)c1ccco1
7. CC(C)(C)c1ccc(C(=O)N2CCN(c3ncccn3)CC2)cc1

1. 1.09
2. 1.72
3. 1.65
4. 0.51
5. 0.11
6. 0.00
7. 0.98

Give measured log10 solubility kinetic for every item shown.
1. COc1ccc(-c2csc3ncnc(Cl)c23)cc1
2. Clc1nc(NCc2ccco2)nc(N2CCCCC2)n1
3. COc1cccc(-c2cc(C(=O)NC3CCCC3)c3ccccc3n2)c1

1. -0.22
2. -0.52
3. 0.11

Please report log10 solubility kinetic for every entry that follows.
1. Cc1ccc(OCC(=O)OCC(=O)NC2CCCC2)cc1C
2. O=C1CC(c2ccccc2)=Nc2ccc(Br)cc2N1
3. COC(=O)N1CCN(c2ccc(C)c(C)c2)CC1
4. C/C(=N/OC(=O)c1ccccc1Br)c1ccc(C)cc1
5. CC(NC(=O)Cn1cc(C(F)(F)F)ccc1=O)c1ccc(F)cc1 (centres undefined)
6. O=C(Nc1ccccc1OC(F)(F)F)c1ccc([N+](=O)[O-])cc1

1: 1.30; 2: -0.05; 3: 1.51; 4: 0.18; 5: 1.37; 6: 0.83

Value source: PubChem BioAssay AID1996
